- tested.on: Cholecystokinin receptor type A (Homo sapiens) (UniProt P32238)
- Sequence (P32238 whole entry): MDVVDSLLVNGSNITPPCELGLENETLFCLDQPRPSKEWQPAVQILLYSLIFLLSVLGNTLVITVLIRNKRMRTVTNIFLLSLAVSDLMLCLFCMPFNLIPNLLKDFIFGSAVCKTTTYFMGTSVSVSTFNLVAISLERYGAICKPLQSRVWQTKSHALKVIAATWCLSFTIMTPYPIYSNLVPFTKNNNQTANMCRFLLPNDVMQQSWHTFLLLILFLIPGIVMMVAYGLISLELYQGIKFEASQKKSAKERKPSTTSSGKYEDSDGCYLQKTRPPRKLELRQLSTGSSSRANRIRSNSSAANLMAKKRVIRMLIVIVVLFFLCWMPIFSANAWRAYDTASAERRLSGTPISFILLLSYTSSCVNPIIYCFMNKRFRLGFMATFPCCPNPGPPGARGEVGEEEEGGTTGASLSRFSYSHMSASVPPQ
- protocol.notes: Agonist activity against human CCK1 receptor assessed as receptor activation at 10000 nM
- Assay type: functional
value.type: Activity (%)

structure_string=COc1cccc(-n2cc(C(=O)N3CCN(c4cc(C(=O)O)c5ccccc5c4)CC3)nc2-c2ccc(C)cc2)c1 value_type=Activity endpoint_unit=% result_number=85
structure_string=Cc1ccc(-c2nc(C(=O)N3CCN(c4ccc5ccccc5c4)CC3)cn2-c2cccc3c2OCCO3)cc1 value_type=Activity endpoint_unit=% result_number=70
structure_string=CCOc1cccc(-n2cc(C(=O)N3CCN(c4cc(C(=O)O)c5ccccc5c4)CC3)nc2-c2ccc(C)cc2)c1 value_type=Activity endpoint_unit=% result_number=105
structure_string=Cc1ccc(-c2nc(C(=O)N3CCN(c4ccc5ccccc5c4)CC3)cn2-c2cccc(OCC(F)(F)F)c2)cc1 value_type=Activity endpoint_unit=% result_number=95
structure_string=CCOc1cccc(-n2cc(C(=O)N3CCN(c4cnc5ccccc5c4)CC3)nc2-c2ccc(C)cc2)c1 value_type=Activity endpoint_unit=% result_number=105
structure_string=CCOc1cccc(-n2cc(C(=O)N3CCN(c4ccc5ccccc5c4)CC3)nc2-c2ccccc2F)c1 value_type=Activity endpoint_unit=% result_number=110
structure_string=CCOc1cccc(-n2cc(C(=O)N3CCN(c4cnc5ccccc5c4)CC3)nc2-c2ccc(F)cc2)c1 value_type=Activity endpoint_unit=% result_number=92
structure_string=CCOc1cccc(-n2cc(C(=O)N3CCN(c4ccc5ccccc5c4)CC3)nc2-c2ccc(F)cc2)c1 value_type=Activity endpoint_unit=% result_number=96

###

Activity by entry:
- tested.on: Gastrin/cholecystokinin type B receptor (Homo sapiens) (UniProt P32239)
- Sequence (whole entry): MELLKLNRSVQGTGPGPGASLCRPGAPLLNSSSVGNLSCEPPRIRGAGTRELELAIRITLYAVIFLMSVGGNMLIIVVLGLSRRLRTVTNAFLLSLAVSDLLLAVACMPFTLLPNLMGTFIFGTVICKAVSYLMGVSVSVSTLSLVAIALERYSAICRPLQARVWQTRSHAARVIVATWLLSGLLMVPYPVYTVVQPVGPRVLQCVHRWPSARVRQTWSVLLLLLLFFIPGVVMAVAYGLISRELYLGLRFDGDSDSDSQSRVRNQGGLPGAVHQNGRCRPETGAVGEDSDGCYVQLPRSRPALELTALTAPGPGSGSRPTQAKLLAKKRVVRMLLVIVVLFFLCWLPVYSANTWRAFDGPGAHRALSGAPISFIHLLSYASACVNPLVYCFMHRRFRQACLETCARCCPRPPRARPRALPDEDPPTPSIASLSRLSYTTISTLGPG
- protocol.notes: Agonist activity against human CCK2 receptor assessed as receptor activation at 10000 nM
- Type: functional

Recorded Activity, per entry:
structure_string=COc1ccc(-n2cc(C(=O)N3CCN(c4ccc5ccccc5c4)CC3)nc2-c2ccc(C)cc2)cc1 value_type=Activity result="< 21%"
structure_string=COc1cccc(-n2cc(C(=O)N3CCN(c4cccc5ccccc45)CC3)nc2-c2ccc(C)cc2)c1 value_type=Activity result="< 20%"
structure_string=COc1cccc(-n2cc(C(=O)N3CCN(c4ccc5ccccc5c4)CC3)nc2-c2ccc(C)cc2)c1 value_type=Activity result="< 21%"
structure_string=CCOc1cccc(-n2cc(C(=O)N3CCN(c4cc(C(=O)O)c5ccccc5c4)CC3)nc2-c2ccc(F)cc2F)c1 value_type=Activity result="< 36%"
structure_string=CCc1cccc(-n2cc(C(=O)N3CCN(c4ccc5ccccc5c4)CC3)nc2-c2ccc(C)cc2)c1 value_type=Activity result="< 21%"
structure_string=CCOc1cccc(-n2cc(C(=O)N3CCN(c4ccc5ccccc5c4)CC3)nc2-c2ccc(CC)cc2)c1 value_type=Activity result="< 12%"
structure_string=CCOc1cccc(-n2cc(C(=O)N3CCN(c4cc(C(=O)O)c5ccccc5c4)CC3)nc2-c2ccc(C)cc2)c1 value_type=Activity result="< 36%"

Request: Supply Activity value. Item: COc1cccc(-n2cc(C(=O)N3CCN(c4cc5ccccc5cn4)CC3)nc2-c2ccc(C)cc2)c1
Response: < 20%

###

- tested.on: Cholecystokinin receptor type A (Homo sapiens)
- Sequence (P32238 whole entry): as the sequence (P32238 whole entry) above
value.type: IC50 (nM)

structure_string=COc1cccc(-n2cc(C(=O)N3CCN(c4cc5ccccc5cn4)CC3)nc2-c2ccc(C)cc2)c1 value_type=IC50 result_number=1.9
structure_string=CCCOc1cccc(-n2cc(C(=O)N3CCN(c4ccc5ccccc5c4)CC3)nc2-c2ccc(C)cc2)c1 value_type=IC50 result_number=160
structure_string=Cc1ccc(-c2nc(C(=O)N3CCN(c4ccc5ccccc5c4)CC3)cn2-c2ccc3c(c2)OCCO3)cc1 value_type=IC50 result_number=0.42
structure_string=CCOc1cccc(-n2cc(C(=O)N3CCN(c4ccc5ccccc5c4)CC3)nc2-c2ccc(C)cc2)c1 value_type=IC50 result_number=2.3
structure_string=COc1cccc(-c2cc(C(=O)N3CCN(c4cccc(Cl)c4)CC3)nn2-c2ccc(C)cc2)c1 value_type=IC50 result_number=41

[P] COc1cccc(-n2cc(C(=O)N3CCN(c4ccc5ccccc5c4)CC3)nc2-c2ccc(C)cc2)c1
[Q] CCOc1cccc(-n2cc(C(=O)N3CCN(c4ccc5ccccc5c4)CC3)nc2-c2ccc(F)cc2F)c1
[R] Cc1ccc(-c2nc(C(=O)N3CCN(c4ccc5ccccc5c4)CC3)cn2-c2cccc(O)c2)cc1
[S] CCOc1cccc(-n2cc(C(=O)N3CCN(c4cc(C(=O)O)c5ccccc5c4)CC3)nc2-c2ccc(F)cc2)c1
[T] CCOc1cccc(-n2cc(C(=O)N3CCN(c4ccc5ccccc5c4)CC3)nc2-c2ccc(CC)cc2)c1
Request: // ascending sort on recorded IC50 The labels, placed in the requested order, form the answer.
Response: S, Q, P, R, T

###

- tested.on: Gastrin/cholecystokinin type B receptor (Homo sapiens)
- Sequence (whole entry): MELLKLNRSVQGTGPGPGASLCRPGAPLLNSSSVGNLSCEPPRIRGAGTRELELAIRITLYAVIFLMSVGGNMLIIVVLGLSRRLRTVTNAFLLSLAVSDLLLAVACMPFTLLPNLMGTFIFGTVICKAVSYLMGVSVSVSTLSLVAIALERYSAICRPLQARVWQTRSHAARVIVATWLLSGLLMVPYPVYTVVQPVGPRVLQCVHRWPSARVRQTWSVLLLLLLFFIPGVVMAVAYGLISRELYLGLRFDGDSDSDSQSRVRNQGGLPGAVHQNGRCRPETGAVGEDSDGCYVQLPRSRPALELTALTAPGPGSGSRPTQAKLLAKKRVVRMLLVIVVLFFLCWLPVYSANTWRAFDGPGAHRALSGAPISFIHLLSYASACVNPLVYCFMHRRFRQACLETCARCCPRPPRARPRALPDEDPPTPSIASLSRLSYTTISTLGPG
- protocol.notes: Agonist activity against human CCK2 receptor assessed as receptor activation at 10000 nM
- Assay type: functional
value.type: Activity

structure_string=CCOc1cccc(-n2cc(C(=O)N3CCN(c4ccc5ccccc5c4)CC3)nc2-c2ccc(F)cc2F)c1 result="< 12%"
structure_string=CCOc1cccc(-n2cc(C(=O)N3CCN(c4ccc5ccccc5c4)CC3)nc2-c2ccc(C)cc2F)c1 result="< 12%"
structure_string=CCOc1cccc(-n2cc(C(=O)N3CCN(c4cnc5ccccc5c4)CC3)nc2-c2ccc(F)cc2)c1 result="< 36%"
structure_string=CCOc1cccc(-n2cc(C(=O)N3CCN(c4ccc5ccccc5c4)CC3)nc2-c2ccccc2F)c1 result="< 12%"
structure_string=COc1cccc(-n2cc(C(=O)N3CCN(c4ccc5cnccc5c4)CC3)nc2-c2ccc(C)cc2)c1 result="< 20%"

Request: Given Cc1ccc(-c2nc(C(=O)N3CCN(c4cc(C(=O)O)c5ccccc5c4)CC3)cn2-c2ccc3c(c2)OCCO3)cc1 , respond with its Activity.
Response: < 36%

Request: Tell me Activity reported for O=C(O)c1cc(N2CCN(C(=O)c3cn(-c4ccc5c(c4)OCCO5)c(-c4ccc(F)cc4)n3)CC2)cc2ccccc12
Response: < 36%

Request: Please report Activity for the following molecule: COc1cccc(-n2cc(C(=O)N3CCN(c4cccc(Cl)c4)CC3)nc2-c2ccc(C)cc2)c1
Response: < 20%

###

- tested.on: Gastrin/cholecystokinin type B receptor (Homo sapiens)
- Sequence (whole entry): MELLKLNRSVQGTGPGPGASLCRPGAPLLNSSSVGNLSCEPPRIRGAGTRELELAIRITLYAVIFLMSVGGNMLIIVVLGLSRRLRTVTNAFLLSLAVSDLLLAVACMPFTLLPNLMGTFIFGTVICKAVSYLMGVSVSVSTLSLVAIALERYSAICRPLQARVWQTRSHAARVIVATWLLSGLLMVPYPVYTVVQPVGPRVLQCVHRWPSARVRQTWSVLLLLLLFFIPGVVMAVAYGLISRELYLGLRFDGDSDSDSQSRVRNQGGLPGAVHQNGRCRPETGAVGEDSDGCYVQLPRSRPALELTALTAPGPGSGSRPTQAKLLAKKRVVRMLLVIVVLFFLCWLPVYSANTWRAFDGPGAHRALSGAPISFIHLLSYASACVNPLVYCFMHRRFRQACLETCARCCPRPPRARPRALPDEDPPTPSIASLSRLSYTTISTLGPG
- protocol.notes: Agonist activity against human CCK2 receptor assessed as receptor activation at 10000 nM
- Format: functional
As shown below, each of these compounds has a reported Activity value.

Guide cases for Activity, answers given:
structure_string=CCOc1cccc(-n2cc(C(=O)N3CCN(c4ccc5ccccc5c4)CC3)nc2-c2ccccc2)c1 value_type=Activity result="< 12%"
structure_string=COc1cccc(-n2cc(C(=O)N3CCN(c4cc5ccccc5cc4C(=O)O)CC3)nc2-c2ccc(C)cc2)c1 value_type=Activity result="< 20%"
structure_string=COc1cccc(-n2cc(C(=O)N3CCN(c4ccc(Cl)c(Cl)c4)CC3)nc2-c2ccc(C)cc2)c1 value_type=Activity result="< 20%"
structure_string=CCOc1cccc(-n2cc(C(=O)N3CCN(c4cc(C(=O)O)c5ccccc5c4)CC3)nc2-c2ccc(C)cc2F)c1 value_type=Activity result="< 36%"

Pending compound:
Request: Entry CCOc1cccc(-n2cc(C(=O)N3CCN(c4cc(C(=O)O)c5ccccc5c4)CC3)nc2-c2ccc(F)cc2)c1 needs its Activity filled in; supply it.
Response: < 36%

FYI, the data here is from ChEMBL document CHEMBL1155836.
